Please provide measured pEC50 for the entries that follow.
test system: PC3 cells; test: In vitro cell proliferation assay; assay type: cell-based, human; details: with PC3 cells; values tied to compounds by order of Table 1
Just so you know, pEC50 here is -log10 of the concentration in molar units; reply with that number alone.

What value of pEC50 has been reported for the following compound? CCNC(=O)Nc1ccc(-c2nc(N3CCOC[C@@H]3C)c3c(n2)[C@](C)(CCN(C)CC)OC3)cc1 [Example 78 eq (S)] 5.89

Note, next up: CCNC(=O)Nc1ccc(-c2nc(N3CCOC[C@@H]3C)c3c(n2)C(C)(CCn2ccnc2)OC3)cc1 (single isomer, unassigned) [Example 80 es (S)] 6.50

Same read-out for CCNC(=O)Nc1ccc(-c2nc(N3CCOC[C@@H]3C)c3c(n2)[C@@](C)(CCN(C)CC)OC3)cc1 [Example 78 eq (R)] ? 6.79
